experiment: Half life in rhesus monkey plasma at 202 to 7690 ug administered via intranasal nebulization for 8 mins by LC-MS method; assay type: ADME, cell-free, Macaca mulatta; settings: inhaled or intranasal
endpoint-label: half-life
Value and unit, in that order.

Data request, read-out half-life, for `CS(=O)(=O)N1CCC(Oc2ccc(CC(=O)N3CCC(N4C(=O)CCc5ccccc54)CC3)c(OCCF)c2)CC1`
29 min

----------
assay: Cmax in rhesus monkey CSF at 7690 ug administered via intranasal nebulization for 8 mins by LC-MS method; assay type: ADME, Macaca mulatta, Cerebrospinal fluid; set-up: dose 7690 ug, route nasal; conditions: inhaled or intranasal
endpoint-label: Cmax

Data request, read-out Cmax, for `CS(=O)(=O)N1CCC(Oc2ccc(CC(=O)N3CCC(N4C(=O)CCc5ccccc54)CC3)c(OCCF)c2)CC1`
0.0972 ng/mL

----------
assay: Cmax in rhesus monkey plasma at 202 ug administered via intranasal nebulization for 8 mins by LC-MS method; assay type: ADME, cell-free, Macaca mulatta; parameters: dose 202 ug, route nasal; details: inhaled or intranasal
endpoint-label: Cmax (ng/mL)
Respond numerically; units are ng/mL and should not be typed.

Data request, read-out Cmax, for `CS(=O)(=O)N1CCC(Oc2ccc(CC(=O)N3CCC(N4C(=O)CCc5ccccc54)CC3)c(OCCF)c2)CC1`
1.16

----------
experiment: Cmax in rhesus monkey plasma at 7690 ug administered via intranasal nebulization for 8 mins by LC-MS method; type: ADME, cell-free, Macaca mulatta; set-up: dose 7690 ug, route nasal; conditions: inhaled or intranasal
endpoint-label: Cmax
Value and unit, in that order.

Data request, read-out Cmax, for `CS(=O)(=O)N1CCC(Oc2ccc(CC(=O)N3CCC(N4C(=O)CCc5ccccc54)CC3)c(OCCF)c2)CC1`
156 ng/mL

----------
assay: Cmax in rhesus monkey CSF at 202 ug administered via intranasal nebulization for 8 mins by LC-MS method; format: ADME, Macaca mulatta, Cerebrospinal fluid; parameters: dose 202 ug, route nasal; settings: inhaled or intranasal
endpoint-label: Cmax (pg/mL)
Respond numerically; units are pg/mL and should not be typed.

Data request, read-out Cmax, for `CS(=O)(=O)N1CCC(Oc2ccc(CC(=O)N3CCC(N4C(=O)CCc5ccccc54)CC3)c(OCCF)c2)CC1`
7.36

----------
assay: Tmax in rhesus monkey plasma at 202 ug administered via intranasal nebulization for 8 mins by LC-MS method; type: ADME, cell-free, Macaca mulatta; details: inhaled or intranasal
endpoint-label: Tmax (min)
Respond numerically; units are min and should not be typed.

Data request, read-out Tmax, for `CS(=O)(=O)N1CCC(Oc2ccc(CC(=O)N3CCC(N4C(=O)CCc5ccccc54)CC3)c(OCCF)c2)CC1`
5

----------
Target: Oxytocin receptor (Homo sapiens)
Sequence (P30559 whole entry): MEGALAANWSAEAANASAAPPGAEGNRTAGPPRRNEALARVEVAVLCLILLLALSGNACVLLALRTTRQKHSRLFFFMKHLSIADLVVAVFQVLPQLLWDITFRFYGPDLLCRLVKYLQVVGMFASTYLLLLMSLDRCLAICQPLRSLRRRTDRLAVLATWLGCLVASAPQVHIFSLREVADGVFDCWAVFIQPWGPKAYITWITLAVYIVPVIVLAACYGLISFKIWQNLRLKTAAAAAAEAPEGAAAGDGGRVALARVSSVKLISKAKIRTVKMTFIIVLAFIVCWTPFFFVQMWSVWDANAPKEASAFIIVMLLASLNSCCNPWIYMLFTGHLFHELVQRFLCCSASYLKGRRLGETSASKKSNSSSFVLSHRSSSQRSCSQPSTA
endpoint-label: pKi
Keep it numeric: pKi is minus log10 of the concentration in mol/L.

Request: pKi, test system Oxytocin receptor (Homo sapiens), entry Cc1ccccc1N1CCN(S(=O)(=O)CC23CCC(CC2NC(=O)C(N)CCS(C)(=O)=O)C3(C)C)CC1 (stereo unspecified)
7.77

----------
experiment: Tmax in rhesus monkey CSF at 202 ug administered via intranasal nebulization for 8 mins by LC-MS method; assay type: ADME, Macaca mulatta, Cerebrospinal fluid; conditions: inhaled or intranasal
endpoint-label: Tmax
Value and unit, in that order.

Data request, read-out Tmax, for `CS(=O)(=O)N1CCC(Oc2ccc(CC(=O)N3CCC(N4C(=O)CCc5ccccc54)CC3)c(OCCF)c2)CC1`
2 h

----------
assay: Tmax in rhesus monkey plasma at 6150 ug, im by LC-MS method; type: ADME, organism-based, Macaca mulatta
endpoint-label: Tmax (h)
Respond numerically; units are h and should not be typed.

Data request, read-out Tmax, for `CS(=O)(=O)N1CCC(Oc2ccc(CC(=O)N3CCC(N4C(=O)CCc5ccccc54)CC3)c(OCCF)c2)CC1`
1
